tested on: gastric ulcers (ulcerous mucosal lesions); experiment: antiulcerogenic action on the rat (reserpine/indometacin/cold-induced gastric ulcers, oral test substance); type: in vivo, female Sprague-Dawley rats; conditions: Rattus norvegicus; oral; dose which reduces the ulcerous area by 50%; reserpine 1 mg/kg i.p., indometacin 21.5 mg/kg i.p., 6 hours at 8° C.; read-out: Antiulcerogenic action on the rat, ED 50%
For each entry below, report its log10(ED50) value.
# log10 transformed; quantity=ED50; unit=mg/kg

Query string: Can you look up the measured log10(ED50) of O=C(C=C1c2ccccc2NC(=O)c2ccccc21)OCCN1CCOCC1 (mixture of isomers) for me?
Result string: 0.28

Query string: Can you look up the measured log10(ED50) of O=C(C=C1c2ccccc2NC(=O)c2ccccc21)OCCCN1CCOCC1 (mixture of isomers) for me?
Result string: -0.08

Query string: Can you look up the measured log10(ED50) of O=C(/C=C1/c2ccccc2NC(=O)c2ccccc21)OCCN1CCOCC1 [Example 1, cis] for me?
Result string: 0.18

Query string: Can you look up the measured log10(ED50) of CN(C)CCOC(=O)C=C1c2ccccc2NC(=O)c2ccccc21 (mixture of isomers) for me?
Result string: -0.19

Query string: Can you look up the measured log10(ED50) of O=C(/C=C1\c2ccccc2NC(=O)c2ccccc21)OCCN1CCOCC1 [Example 1, trans] for me?
Result string: 0.72

Query string: Can you look up the measured log10(ED50) of CN1CCN(CC(=O)N2c3ccccc3C(=O)Nc3cccnc32)CC1 [pirenzepine, reference compound] for me?
Result string: 0.81

---

For each entry below, report its Antiulcerogenic action on the rat, Relative activity value.
system: gastric ulcers (ulcerous mucosal lesions); test: antiulcerogenic action on the rat (reserpine/indometacin/cold-induced gastric ulcers, oral test substance); type: in vivo, female Sprague-Dawley rats; conditions: relative to pirenzepine = 1.0
No unit in the answer, only the number.

Query string: Checklist item: Antiulcerogenic action on the rat, Relative activity tested on gastric ulcers (ulcerous mucosal lesions), entry O=C(C=C1c2ccccc2NC(=O)c2ccccc21)OCCCN1CCOCC1 (mixture of isomers) , value?
Result string: 7.8

Query string: Checklist item: Antiulcerogenic action on the rat, Relative activity tested on gastric ulcers (ulcerous mucosal lesions), entry CN(C)CCOC(=O)C=C1c2ccccc2NC(=O)c2ccccc21 (mixture of isomers) , value?
Result string: 10.2

Query string: Checklist item: Antiulcerogenic action on the rat, Relative activity tested on gastric ulcers (ulcerous mucosal lesions), entry O=C(/C=C1/c2ccccc2NC(=O)c2ccccc21)OCCN1CCOCC1 [Example 1, cis] , value?
Result string: 4.3

Query string: Checklist item: Antiulcerogenic action on the rat, Relative activity tested on gastric ulcers (ulcerous mucosal lesions), entry O=C(C=C1c2ccccc2NC(=O)c2ccccc21)OCCN1CCOCC1 (mixture of isomers) , value?
Result string: 3.4

Query string: Checklist item: Antiulcerogenic action on the rat, Relative activity tested on gastric ulcers (ulcerous mucosal lesions), entry O=C(/C=C1\c2ccccc2NC(=O)c2ccccc21)OCCN1CCOCC1 [Example 1, trans] , value?
Result string: 1.2

The values you see were collected from patent US4477451A.
